TEST_SYSTEM: T1, WWOX WW1-WW2 tandem domain (amino acids 16-91) (human)
T1 chain: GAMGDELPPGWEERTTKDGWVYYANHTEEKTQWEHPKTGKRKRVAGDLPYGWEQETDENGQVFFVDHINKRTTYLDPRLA
METHOD_SUMMARY: NMR titration
The binders listed here are annotated with their KD WW1 (based on W44).
Could you give me the number in µM? Just the number is fine.

The examples below pair each entry with its known result.
[[record]]
binder = "GTVLPPPPYRHRNGGGGGTVLPPPPYRHRN [ErbB4 double-motif peptide PY3PY3 (polyglycine linker)]"
measured_parameter = "KD WW1 (based on W44)"
measure_unit = "µM"
reported = 0.6

[[record]]
binder = "AFNIPPPIYTSRAGGGGGTVLPPPPYRHRN [ErbB4 double-motif peptide PY1PY3 (polyglycine linker)]"
measured_parameter = "KD WW1 (based on W44)"
measure_unit = "µM"
reported = 6

[[record]]
binder = "AFNIPPPIYTSRAGGGGGHSPPPAYTPMS [ErbB4 double-motif peptide PY1PY2S (natural linker replaced by polyglycine)]"
measured_parameter = "KD WW1 (based on W44)"
measure_unit = "µM"
reported = 2


[in] Given the binder AFNIPPPIYTSRARIDSNRSEIGHSPPPAYTPMS [ErbB4 double-motif peptide PY1PY2 (1027-1060, natural linker)] , what is its reported KD WW1 (based on W44)?
[out] 10
